Numbers sourced from patent US20240423914A1.

test system: human IgG in mouse serum; assay: Immunoglobulin G (IgG) mRNA in vivo evaluation using lipid nanoparticle compositions (human IgG ELISA of mouse serum); set-up: species or system CD-1/ICR mice; conditions: lipid formulated as LNP (cationic lipid/DSPC/cholesterol/PEG lipid) with IgG mRNA; 0.3 mg mRNA/kg, tail vein injection, mice; serum measured 24 hours after administration
Give measured Serum IgG (ug/mL) @ 0.3 mg/kg for each item. Keep answers brief.
Give the number first and the unit second.

Query: Output Serum IgG (ug/mL) @ 0.3 mg/kg of "CCCCCCCCCCN(CCCCCCCCCC)C(=O)CCCCCC(CCCCCC(=O)N(CCCCCCCCCC)CCCCCCCCCC)OC(=O)CCCN(C)C"
Reply: 18.0 ± 2.0 µg/mL

Query: Output Serum IgG (ug/mL) @ 0.3 mg/kg of CCCCCCCCCCN(CCCCCCCCCC)C(=O)CCCCCCCCC(CCCCCCCCC(=O)N(CCCCCCCCCC)CCCCCCCCCC)N(CCCCCCCCCC)C(=O)C(F)CCCN(C)C (centres unmarked)
Reply: 13.9 ± 4.7 µg/mL

Query: Output Serum IgG (ug/mL) @ 0.3 mg/kg of CCCCCCCCCCN(CCCCCCCCN(CCCCCCCC(=O)N(CCCCCCCCCC)CCCCCCCCCC)C(=O)C(F)CCN(C)C)C(=O)CCCCCCCCC (centres unmarked)
Reply: 16.2 ± 4.3 µg/mL

Query: Output Serum IgG (ug/mL) @ 0.3 mg/kg of "CCCCCCCCCCN(CCCCCCCCCC)C(=O)CCCCCCCN(CCCCCCCC(=O)N(CCCCCCCCCC)CCCCCCCCCC)C(=O)OCCCN(C)C"
Reply: 30.8 ± 7.5 µg/mL

Query: Output Serum IgG (ug/mL) @ 0.3 mg/kg of "CCCCCCCCCCN(CCCCCCCCCC)C(=O)CCCCCCCCCN(CCCCCCCCCC(=O)N(CCCCCCCCCC)CCCCCCCCCC)C(=O)OCCCN(C)C"
Reply: 10.6 ± 5.0 µg/mL

Query: Output Serum IgG (ug/mL) @ 0.3 mg/kg of CCCCCCCCCCN(CCCCCCCCCC)C(=O)CCCCCCCCC(CCCCCCCCC(=O)N(CCCC)C(CCCCCCCC)CCCCCCCC)N(CCCCCCCCCC)C(=O)CCN(C)C (centres unmarked)
Reply: 10.1 ± 4.03 µg/mL

Query: Output Serum IgG (ug/mL) @ 0.3 mg/kg of "CCCCCCCCCCN(CCCCCCCCCC)C(=O)CCCCCCCCC(CCCCCCCCC(=O)N(CCCCCCCCCC)CCCCCCCCCC)OC(=O)CCCN(C)C"
Reply: 19.0 ± 3.3 µg/mL

Query: Output Serum IgG (ug/mL) @ 0.3 mg/kg of "CCCCCCCCCCN(CCCCCCCCCC)C(=O)CCCCCCCN(CCCCCCCC(=O)N(CCCCCCCCCC)CCCCCCCCCC)C(=O)CN(C)C"
Reply: 24.2 ± 4.5 µg/mL

Query: Output Serum IgG (ug/mL) @ 0.3 mg/kg of "CCCCCCCCCCN(CCCCCCCCCC)C(=O)CCCCCCCN(CCCCCCCC(=O)N(CCCCCCCCCC)CCCCCCCCCC)C(=O)OCCN(C)C"
Reply: 20.5 ± 4.0 µg/mL

Query: Output Serum IgG (ug/mL) @ 0.3 mg/kg of "CCCCCCCCCCN(CCCCCCCCCC)C(=O)CCCCCCCCC(CCCCCCCCC(=O)N(CCCCCCCCCC)CCCCCCCCCC)N(CCCCCCCCCC)C(=O)CCN(C)C"
Reply: 18.5 ± 6.7 µg/mL

Query: Output Serum IgG (ug/mL) @ 0.3 mg/kg of CCCCCCCCCCN(CCCCCCCCCC)C(=O)CCCCCCCN(CCCCCCCC(=O)N(CCCCCCCCCC)CCCCCCCCCC)C(=O)C(F)CCN(C)C (centres unmarked)
Reply: 23.2 ± 6.1 µg/mL
